Molecular target: Mushroom tyrosinase (Agaricus bisporus, UniProt C7FF04)
Sequence (G1K3P4 entry or part of it): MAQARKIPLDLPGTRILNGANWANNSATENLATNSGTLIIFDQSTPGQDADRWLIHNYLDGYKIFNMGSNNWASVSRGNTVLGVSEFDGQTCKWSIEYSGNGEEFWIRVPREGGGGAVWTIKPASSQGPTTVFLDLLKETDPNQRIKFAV
Sequence (C7FF04 1-392): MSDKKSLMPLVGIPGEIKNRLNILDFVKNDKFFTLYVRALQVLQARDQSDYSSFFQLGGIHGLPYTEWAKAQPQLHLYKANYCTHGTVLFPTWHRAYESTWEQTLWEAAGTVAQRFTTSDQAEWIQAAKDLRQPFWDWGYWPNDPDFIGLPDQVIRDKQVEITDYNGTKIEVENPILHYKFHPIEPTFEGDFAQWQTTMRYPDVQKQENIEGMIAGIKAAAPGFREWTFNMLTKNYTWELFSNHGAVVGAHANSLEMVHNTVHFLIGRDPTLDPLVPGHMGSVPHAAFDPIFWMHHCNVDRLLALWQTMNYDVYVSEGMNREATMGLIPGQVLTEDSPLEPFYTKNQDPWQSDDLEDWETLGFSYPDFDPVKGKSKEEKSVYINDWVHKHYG
Assay: Kinetic analysis of tyrosinase inhibition, diphenolase activity (Lineweaver-Burk plots)
Assay type: biochemical
Settings: L-DOPA 0-200 μM, samples 20-1000 μM
Experimental: The kinetic analysis of tyrosinase inhibitory activity was performed with respect to both monophenolase and diphenolase activities. The concentration ranges of the samples were 20–1000 μM. Both L-tyrosine and L-DOPA were concentrated at 0, 25, 50, 100, and 200 μM, respectively. The inhibitory kinetics of the samples were analyzed using Lineweaver–Burk plots.
Measured metric: Type of inhibition, diphenolase activity

CC1(C)CC[C@]2(C)CC=C3[C@]4(C)CC[C@H]5C(C)(C)C(=O)CC[C@]5(C)[C@H]4CC[C@@]3(C)[C@@H]2C1 ... mixed

* * *

test system: KATO-III gastric carcinoma cell line; experiment: MTT cytotoxicity assay, KATO-III; format: cell-based; conditions: Homo sapiens, 72 h
# if measured IC50 < 40 µM: YES  # else: NO

C=C(C)[C@@H]1CC[C@]2(C)CC[C@]3(C)C(CCC4[C@@]5(C)CCC(OC(C)=O)C(C)(C)C5CC[C@]43C)C12 (some centres unmarked) [Lupeol acetate (8), lupeol acetate] ... NO
CO[C@H]1CC[C@@]2(C)C(CC[C@@]3(C)C4=CC[C@]5(C)CCC(C)(C)CC5[C@@]4(C)CCC23)C1(C)C (some centres unmarked) ... NO

Field: below-cutoff. Rule: recorded IC50 strictly less than 40 µM. Subject: COc1cccc2c1C(=O)c1c(O)c3c(c(O)c1C2=O)C[C@@](O)(C(=O)CO)C[C@@H]3O[C@H]1C[C@H](N)[C@H](O)[C@H](C)O1 [Doxorubicin, reference compound] YES

* * *

assay: FRAP assay (ferric reducing antioxidant power); conditions: FRAP value, expressed as ferrous sulphate equivalent; mean ± SD of three replicates
Marks after values point to notes of the source that are not given here.
# Lookup of reported FRAP keyed by entry

O=C1c2c(O)cc(O)cc2O[C@H](c2ccc(O)cc2)[C@H]1O [(+)-Dihydrokaempferol (4), (+)-dihydrokaempferol] ... 6.23 ± 0.10 ^d μM
C=C(C)[C@@H]1CC[C@]2(C)CC[C@]3(C)C(CCC4[C@@]5(C)CCC(OC(C)=O)C(C)(C)C5CC[C@]43C)C12 (stereo partly shown) [Lupeol acetate (8), lupeol acetate] ... 1.28 ± 0.30 ^a μM

Answer with the recorded FRAP of CO[C@H]1CC[C@@]2(C)C(CC[C@@]3(C)C4=CC[C@]5(C)CCC(C)(C)CC5[C@@]4(C)CCC23)C1(C)C (stereo partly shown) only. 1.31 ± 0.16 ^a μM

Supply FRAP value. Item: "CC1(C)CC[C@]2(C)CC=C3[C@]4(C)CC[C@H]5C(C)(C)C(=O)CC[C@]5(C)[C@H]4CC[C@@]3(C)[C@@H]2C1" 1.12 ± 0.13 ^a μM

Provide one value: measured FRAP of "CC1(C)CC[C@]2(C)CC=C3[C@]4(C)CC[C@H]5C(C)(C)[C@@H](O)CC[C@]5(C)[C@H]4CC[C@@]3(C)[C@@H]2C1" 1.46 ± 0.11 ^a μM

Retrieve FRAP measured for O=C(O)c1ccc(O)c(O)c1 [3,4-Dihydroxybenzoic acid (5), 3,4-dihydroxybenzoic acid] and print it. 3.00 ± 0.40 ^b μM

Kindly indicate its recorded FRAP. Item: O=C1CC(c2ccccc2)Oc2ccc(O)cc21 (stereo not shown) [6-Hydroxyflavanone (3), 6-hydroxyflavanone] 4.12 ± 0.12 ^c μM

Data credit: paper PMC6696208
